# system name: Vasopressin V2 (Rattus norvegicus)
# Construct: Male or female normotensive Sprague-Dawley rats; from tissue; host or cells: whole living Sprague-Dawley rat (V2 receptors of the kidney collecting ducts)
# Sequence (Q00788 whole entry): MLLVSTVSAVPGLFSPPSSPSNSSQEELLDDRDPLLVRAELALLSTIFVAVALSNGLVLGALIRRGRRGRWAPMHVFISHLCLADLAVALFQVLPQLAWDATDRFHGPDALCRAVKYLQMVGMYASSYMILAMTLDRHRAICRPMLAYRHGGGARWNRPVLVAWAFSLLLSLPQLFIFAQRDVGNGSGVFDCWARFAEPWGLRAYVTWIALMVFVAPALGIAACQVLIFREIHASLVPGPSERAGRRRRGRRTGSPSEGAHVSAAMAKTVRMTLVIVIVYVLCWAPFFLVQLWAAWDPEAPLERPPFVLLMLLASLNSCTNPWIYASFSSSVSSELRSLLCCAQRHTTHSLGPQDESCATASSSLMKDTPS
# assay name: Vasopressin V2 agonist effects of test compounds in normal conscious water-loaded rats
# Type: in vivo
# condition label: osmolality changes expressed as percent of control; oral dose of 10 mg/Kg; urine collected for four hours; Sprague-Dawley (CD) rats
Would you mind telling me the reported Changes in Urinary Osmolality of each entry?

The value of Changes in Urinary Osmolality measured for the molecule "O=C(c1ccc2ncsc2c1)N1Cc2cccn2Cc2ccccc21" turned out to be 3% of control

So, "O=C(c1ccc2c(c1)CCO2)N1Cc2cccn2Cc2ccccc21" ? Its Changes in Urinary Osmolality was 10% of control

In plain terms, "Cn1ccc2cc(C(=O)N3Cc4cccn4Cc4ccccc43)ccc21" has a documented Changes in Urinary Osmolality of 174% of control

Per the record, "O=C(c1ccc2c(c1)OCO2)N1Cc2cccn2Cc2ccccc21" has Changes in Urinary Osmolality of 41% of control
